# System: MS2 coat protein
# Assay Protocol: apparent KD of MS2 coat protein; higher = weaker reporter binding
# Condition Label: Eterna round: R107; input ligand: theophylline 2 mM
Overview of recorded apparent KD of MS2 coat protein for various sequences

Solved entries:
1. UGCAUUAUACAUGGAUCACCCAUGUAGACACGAGGACCGGUACGGCCGCCACUCGGAAGAGGAAACAUGAGGAUCACCCAUGUGA [Try A SS t2] : 105 nM
2. AACAUGAGGAUCACCCAUGUCCCAUGUGAACGAGGACCGGUACGGCCGCCACUCGACCGAGGCGGCACAUGAGGAUCACCCACAU [whbob_SS_trypto A_2s13] : 370 nM
3. CCUCACAUGAGGAUCACCCAUGUCUUUACACGAGGACCGGUACGGCCGCCACUCGUUCACAAAACAACCAGAAGUGAUGCCUACA [theeternabot_sameState_MS2_Trp_A_14] : 214 nM

Look up apparent KD of MS2 coat protein: GGGUACAUCACGGCCGCCACUCAUGUAAAUACAUGAGGAUCACCCAUGUCGAUGGAGACAUCGGAGAGGACCGGGUGAUGUACCG
620 nM

Okay, and GGUUACUCUACGGCCGCCACUGAACAUGAGGAUCACCCAUGUAAUGUUCAGUAGUCUUUAGACAACAGGACCGGGUAGUGUAACC [Tryptophan B 6] ?
271 nM

###

# System: MS2 coat protein
# Assay Protocol: apparent KD of MS2 coat protein; designed switch direction (-1 OFF switch, 1 ON switch): -1; higher = weaker reporter binding
# Condition Label: input ligand: microRNA oligo, concentration not stated
Overview of recorded apparent KD of MS2 coat protein for various sequences
// return numeric value only (unit: µM, not printed)

Solved entries:
1. UGUUGUCGCGCAGGAUAUGAGGAUCACCCAUAUAAAGGAUAUGAAAAGAAGGUUCUGAGGAUUACCCAGAAGGGCGGGACAACU [pwkr exNG2 2xF5 2xFMN.16] (Eterna round: R96, puzzle: Exclusion NG 2) : 0.0403
2. ACGAUGACAGAAAGAAGUCAAAAGACAUGAGGAUCACCCAUGUAGGAUAUGGCUACGAAAAGUAGUCAGAAGGACAUGUCAUCA [Omei Exc(NG) 3 Av3] (Eterna round: R96, puzzle: Exclusion NG 3) : 0.00879
3. UAACUACAUGUAGGAUAUGCGUGGCGAAGCUAUGCAGAAGGACAUGAGGAUCACCCAUGUUUUAGCGUCUGCGUACAGAUGCGU [JL ENG1 1.50] (Eterna round: R96, puzzle: Exclusion NG 1) : 0.0131
4. AUGAGGUUAGGAUAUACAUGAGGAUCACCCAUGUUGAAGGGUUAGGUAGGCGGAGCUGGUAGAAGGAACGGAGC [JR_Exclu3_Sub057] (Eterna round: R96, puzzle: Exclusion 3) : 0.0319
5. ACAUGAGGAUCACCCAUGUACAGGGUUUAGUUUCAUCGUUUGAAGGAUAUACUCAGUUAGUUGUUGUAGAAGGUCACAUUUUGG [JR_ExcNG3_Sub004] (Eterna round: R96, puzzle: Exclusion NG 3) : 0.108

Look up apparent KD of MS2 coat protein: GGACCGCGGCAAGGAUAUCUUUGUCAACAUAAAACAUGAGGAUCACCCAUGUGCAUCUUCGUGUGAGAGAAGGUGCGGCAGUCC [Isisgeri] (Eterna round: R96, puzzle: Exclusion NG 2)
0.113

Okay, and AGCGUGUGAGAAGGAUAUCGACCCGAGACAGAUUGAGAAGGUCUCACAUGAGGAUCACCCAUGUGGACAGGGCGAGCUCCAGUC [Eternabot solution 11] (Eterna round: R96, puzzle: Exclusion NG 1) ?
0.0146

Okay, and GCGGAGUAUGUAGGAUAUCGGUCAGUUUCUGAUCGAGAAGGACAUGAGGAUCACCCAUGUAAAUUGCCCGCUUUGUGGGUCCGC [JL ENG1 3.61] (Eterna round: R96, puzzle: Exclusion NG 1) ?
0.0132

Okay, and AGUAGAUCAGGAUAUACGUGAAAGGUCAAAGUGUCCAAUAUACAUGAGGAUCACCCAUGUAGAAGGGAUCUACA [Ex2 Design 116: Not so Super Stable 3] (Eterna round: R96, puzzle: Exclusion 2) ?
0.0221

Okay, and GCUUGUGGGCAAGGAUAUCCUACGUUGUUCUGGUUCGUGUCUGUCACAUGAGGAUCACCCAUGUGGGAGAAGGUGCAUUUGGUG [Design 61] (Eterna round: R96, puzzle: Exclusion NG 2) ?
0.0129

Okay, and AACCUGAGGCUUUGCUUUAGGUGUACAUGAGGAUCACCCAUGUAGGAUAUGGUAGGCAAAGCUUACCAGAAGGACAUUUAGGUU [Mat - Exclusion NG 3 - Mod of JL - D43] (Eterna round: R96, puzzle: Exclusion NG 3) ?
0.0343

Okay, and UUUAUAUAGUAAGGAUAUGUAUUAAUUUUAUCAACAGAAGGUACUGACAUGAGGAUCACCCAUGUUUUAGUGUGGGCAUGUAGU [JMF's solution 93] (Eterna round: R96, puzzle: Exclusion NG 1) ?
0.493

Okay, and UACAUGAGGAUCACCCAUGUUUUGUCGUGUAUGGUAUUUAUCUAGGAUAUCAAUAUAUUUAUUUAUGAGAAGGAGAAUAUUAAU [JMF's solution 11] (Eterna round: R96, puzzle: Exclusion NG 3) ?
0.0285

Okay, and GCUUGUGGGCAAGGAUAUCCUACGCUGUUCUGGUUCGUGUCUGUCACAUGAGGAUCACCCAUGUGGGAGAAGGUGCAUUUGGGU [Design 58] (Eterna round: R96, puzzle: Exclusion NG 2) ?
0.0212

Okay, and CUAAAUCAUGUAGGAUAUGCGUGGCAAAGCUAUGCAGAAGGACAUGAGGAUCACCCAUGUCAUUCCGUCUGGAAACAGACGGGA [Mat - Exclusion NG 1 - Mod of JL - D53] (Eterna round: R96, puzzle: Exclusion NG 1) ?
0.0181

###

# Tested on: MS2 coat protein
# Assay Protocol: apparent KD of MS2 coat protein, switch ON state; designed switch direction (-1 OFF switch, 1 ON switch): 1; higher = weaker reporter binding
# Condition Label: FMN input: 0 or 200 uM; Eterna round: R93 (includes R88 designs)
Measured Attribute: apparent KD of MS2 coat protein (nM)
// return numeric value only (unit: nM, not printed)

1. AGAAAUAAAAGAGAGGAUAUGCAAAAGAUAACAUGAGGAUCACCCAUGUAAAAGAAAAUAAAUGGGUAGAAGGCUCAAAAUAAGA [Jieux modified] : 86.4

Look up apparent KD of MS2 coat protein: AAGUCACAUGAGGAUCACCCAUGUCGUAAACGAUGAGGAUAUAGGAAAAAAAAAAAAAAACUAGAAGGUAUAACAA [SameState1-01]
35

Okay, and AUACGUACGUAUGAGGAUAUCCAUAAUAAGACAUGAGGAUCACCCAUGUAAACAAAACAAUAAUGGGAGAAGGCAUACGUACGAU [SS 2 M 50] ?
47.7

Okay, and AAAAUACAUGAGGAUCACCCAUGUGAAAAUAUGGGAGGAUAUACCGAAAAAAAAAAAAAGGUAGAAGGCCCAAAAA [SS! 1 MT 5] ?
17.1

Okay, and GAGAGGAAGAGAGAGGAUAUCCAAAGGAAAACAUGAGGAUCACCCAUGUAAAAGGUAGGAAAUUGGGAGAAGGCUCAAGAGAGAG [salish99-ss2-063] ?
29.1

Okay, and AAGAAACAUGAGGAUCACCCAUGUAGAAACAUGGGAGGAUAUACAAAGACGAAAGUCAAAGUAGAAGGCCUAAAAA [Mat - Same State 1 - Mod - D165] ?
88.6

Okay, and AUAAAACAUGAGGAUCACCCAUGUAGAAAUAUGGGAGGAUAUACUAGAUCGAAAGAUCUAGUAGAAGGCCUUUAAG [JL Mod of Eli 4] ?
29.6

Okay, and AAAAUAAAAUAAAAGGAUAUAAAAUAAAAAACAUGAGGAUCACCCAUGUAAAAACAUGGGAAAAAAAAGAAGGAAAAAUAAAAAA [SS2: 71 No MS2] ?
603

Okay, and CCCUCGCAAUAACAGGAUAUACAUGGUCAAACAUGAGGAUCACCCAUGUGAGGAAGUUGGCGGUCGUAGAAGGGUUGUUGGCUCA [Beisvesoqu] ?
42.8

Okay, and GGAAGACAUGAGGAUCACCCAUGUGGGAUUAUGGGAGGAUAUACAAAGACGAGAGUCAGAGUAGAAGGCCUAGGAG [salish99-ss1-122(!)] ?
61.1

Okay, and GACGAACAUGAGGAUCACCCAUGUAAAAACGUACAAGGAUAUGUGUGGAAACCGUACUAUACAGAAGGUGUCUGUC [SS1 - 96] ?
37.3

Okay, and AUAAAACAUGAGGAUCACCCAUGUCAAGGCUAUCAAGGAUAUAGGAAGCGUAGCGGUUGACUAGAAGGUGAGAAAU [Ragexequ] ?
66.9

Okay, and GGGAGACAUGAGGAUCACCCAUGUAGAAGGAUGGGAGGAUAUACAAAGACGAGAGUCAGAGUAGAAGGCCUAGGAA [salish99-ss1-189-4KCAL] ?
29
